Source of measurements: ChEMBL document CHEMBL2311445

compounds and their reported pIC50
Target: Human immunodeficiency virus type 1 integrase (Human immunodeficiency virus 1, UniProt Q7ZJM1)
Sequence (Q7ZJM1 whole entry): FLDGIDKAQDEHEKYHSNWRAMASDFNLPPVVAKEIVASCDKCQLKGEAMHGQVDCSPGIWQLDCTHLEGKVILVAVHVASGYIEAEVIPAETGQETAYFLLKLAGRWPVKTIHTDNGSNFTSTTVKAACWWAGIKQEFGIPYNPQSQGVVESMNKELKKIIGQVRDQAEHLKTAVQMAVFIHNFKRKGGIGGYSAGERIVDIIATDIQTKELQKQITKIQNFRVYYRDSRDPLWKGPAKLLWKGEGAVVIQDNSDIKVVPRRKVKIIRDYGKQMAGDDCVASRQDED
Experiment: Inhibition of wild type HIV1 integrase strand transfer activity using 5'-end 32P-labeled linear oligonucleotide as substrate preincubated for 30 mins
pIC50: −log10 of the molar value.

These solved cases illustrate the format of a correct answer.
compound | result
O=C(N/N=C/c1c(O)ccc2ccccc12)c1ccncc1 | < 4.00
C=CC/N=c1/scc(-c2ccccc2Br)n1/N=C/c1ccccn1 | < 4.00
COc1ccc(O)c(/C=N/NC(=O)c2sc3ccccc3c2O)c1 | < 4.00

INPUT: State the recorded pIC50 for this entry: `Oc1ccc(/C=N/N2CCN(c3ccccc3)CC2)cc1O`
OUTPUT: 4.51

INPUT: State the recorded pIC50 for this entry: `COCC/N=c1/scc(-c2cccs2)n1/N=C/c1cc(Br)c(O)c(OC)c1`
OUTPUT: < 4.00

INPUT: State the recorded pIC50 for this entry: `CN(C)c1ccc(/N=N/c2ccc(Cl)cc2)cc1`
OUTPUT: < 4.00

* * *

Molecular target: Human immunodeficiency virus type 1 integrase (Human immunodeficiency virus 1)
Assay: Inhibition of wild type HIV1 integrase strand transfer activity using 5'-end 32P-labeled linear oligonucleotide as substrate preincubated for 30 mins
pIC50: −log10 of the molar value.
propertyLabel: pIC50

entrySmiles | targetUnderTest | pIC50
C/C(=N\Nc1ccc(S(=O)(=O)Nc2ccccc2)cc1[N+](=O)[O-])c1cc(O)ccc1O | Human immunodeficiency virus type 1 integrase (Human immunodeficiency virus 1) | < 4.00

INPUT: State the recorded pIC50 for this entry: `CCN(CC)c1ccc(/C=C2\CCC(/C=N/N=C/c3cccnc3)=C2N2CCOCC2)cc1`
OUTPUT: < 4.00

INPUT: State the recorded pIC50 for this entry: `C/C(=N\N1CCN(Cc2ccccc2Cl)CC1)c1ccc([N+](=O)[O-])cc1`
OUTPUT: < 4.00

INPUT: State the recorded pIC50 for this entry: `O=C1C(O)=Cc2ccccc2/C1=N\Nc1ccc(Cl)cc1`
OUTPUT: 4.00

INPUT: State the recorded pIC50 for this entry: `COc1ccccc1N1CCN(/N=C/c2ccc(Cl)c([N+](=O)[O-])c2)CC1`
OUTPUT: < 4.00

* * *

compounds and their reported pIC50
Molecular target: Human immunodeficiency virus type 1 integrase (Human immunodeficiency virus 1)
Assay: Inhibition of wild type HIV1 integrase 3'-processing activity using 5'-end 32P-labeled linear oligonucleotide as substrate preincubated for 30 mins
pIC50: −log10 of the molar value.

These solved cases illustrate the format of a correct answer.
entrySmiles | pIC50
COCC/N=c1/scc(-c2cccs2)n1/N=C/c1cc(Br)c(O)c(OC)c1 | < 4.00
O=C(CP(=O)(c1ccccc1)c1ccccc1)N/N=C/c1cc(Br)cc(Br)c1O | 4.00

INPUT: State the recorded pIC50 for this entry: `Cc1sc2ncnc(N/N=C/c3c(O)ccc4ccccc34)c2c1C`
OUTPUT: 4.11

INPUT: State the recorded pIC50 for this entry: `CC(=O)c1ccc(/N=N/c2ccc(C[P+](c3ccccc3)(c3ccccc3)c3ccccc3)cc2)cc1`
OUTPUT: < 4.00

INPUT: State the recorded pIC50 for this entry: `Cc1ccc(N/N=C2\Sc3ccccc3C2=O)cc1`
OUTPUT: < 4.00

INPUT: State the recorded pIC50 for this entry: `COc1ccc(OC)c(/C=N/NC(=O)c2n[nH]c3c2CCC3)c1`
OUTPUT: < 4.00

INPUT: State the recorded pIC50 for this entry: `CN(C)c1ccc(/N=N/c2ccc(Cl)cc2)cc1`
OUTPUT: < 4.00

INPUT: State the recorded pIC50 for this entry: `C=CC/N=c1/scc(-c2ccccc2Br)n1/N=C/c1ccccn1`
OUTPUT: < 4.00

INPUT: State the recorded pIC50 for this entry: `COCCN1C(=O)/C(=C\NNC(=O)c2cc(Cl)ccc2O)C(=O)NC1=S`
OUTPUT: 4.05

INPUT: State the recorded pIC50 for this entry: `COc1ccccc1N1CCN(/N=C/c2ccc(Cl)c([N+](=O)[O-])c2)CC1`
OUTPUT: < 4.00

INPUT: State the recorded pIC50 for this entry: `O=C(N/N=C/c1c(O)ccc2ccccc12)c1cc[nH]n1`
OUTPUT: < 4.00

* * *

compounds and their reported IC50
Molecular target: Human immunodeficiency virus type 1 integrase (Human immunodeficiency virus 1, UniProt Q7ZJM1)
Assay: Inhibition of wild type HIV1 integrase 3'-processing activity using 5'-end 32P-labeled linear oligonucleotide as substrate preincubated for 30 mins

These solved cases illustrate the format of a correct answer.
entrySmiles | result
O=C(N/N=C/c1ccc(Cl)cc1Cl)c1cnccn1 | > 100 µM
COc1ccc(O)c(/C=N/NC(=O)c2sc3ccccc3c2O)c1 | > 100 µM
O=C(N/N=C/c1ccc(O)cc1O)c1ccncc1 | > 100 µM

INPUT: State the recorded IC50 for this entry: `COc1cc(Br)cc(/C=N/NC(=O)c2ccccn2)c1O`
OUTPUT: 17 µM

* * *

Target: Human immunodeficiency virus type 1 integrase (Human immunodeficiency virus 1)
Experiment: Inhibition of wild type HIV1 integrase 3'-processing activity using 5'-end 32P-labeled linear oligonucleotide as substrate preincubated for 30 mins
molecules and their reported IC50

These solved cases illustrate the format of a correct answer.
molecule | targetUnderTest | IC50
O=C(N/N=C/c1c(O)ccc2ccccc12)c1n[nH]c2c1CCC2 | Human immunodeficiency virus type 1 integrase (Human immunodeficiency virus 1) | > 100 µM
C/C(=N\Nc1ccc(S(=O)(=O)Nc2ccccc2)cc1[N+](=O)[O-])c1cc(O)ccc1O | Human immunodeficiency virus type 1 integrase (Human immunodeficiency virus 1) | > 100 µM

# ---- query molecule ----
INPUT: State the recorded IC50 for this entry: `O=C(N/N=C/c1ccccc1O)c1cnccn1`
OUTPUT: > 100 µM

* * *

Biological target: Human immunodeficiency virus type 1 integrase (Human immunodeficiency virus 1, UniProt Q7ZJM1)
Assay: Inhibition of wild type HIV1 integrase strand transfer activity using 5'-end 32P-labeled linear oligonucleotide as substrate preincubated for 30 mins
propertyLabel: IC50

These solved cases illustrate the format of a correct answer.
compound | IC50
O=C(N/N=C/c1cc(Br)ccc1O)C1=NNC2CCCCC12 (centres undefined) | 15 µM
COc1c(Cl)cc(Cl)cc1/C=N/NC(=O)c1ccncc1 | > 100 µM
Cc1occc1C(=O)NN/C=C1/C(=O)N(c2ccccc2Cl)C(=O)c2ccccc21 | 75 µM
CCNc1nc(NCC)nc(C(=O)NN)n1 | < 100 µM
O=C(CP(=O)(c1ccccc1)c1ccccc1)N/N=C/c1cc(Br)cc(Br)c1O | 100 µM
COc1ccc(OC)c(/C=N/NC(=O)c2n[nH]c3c2CCC3)c1 | > 100 µM

INPUT: State the recorded IC50 for this entry: `O=C(N/N=C/c1ccc(O)cc1O)c1ccncc1`
OUTPUT: > 100 µM

INPUT: State the recorded IC50 for this entry: `O=C(N/N=C/c1ccc(Cl)cc1Cl)c1cnccn1`
OUTPUT: > 100 µM

INPUT: State the recorded IC50 for this entry: `Cc1ccc(N/N=C2\Sc3ccccc3C2=O)cc1`
OUTPUT: > 100 µM

* * *

compounds and their reported pIC50
Target: Human immunodeficiency virus type 1 integrase (Human immunodeficiency virus 1, UniProt Q7ZJM1)
Test: Inhibition of wild type HIV1 integrase strand transfer activity using 5'-end 32P-labeled linear oligonucleotide as substrate preincubated for 30 mins
pIC50: −log10 of the molar value.

These solved cases illustrate the format of a correct answer.
entrySmiles | pIC50
CC/N=c1/scc(-c2cc(OC)ccc2OC)n1/N=C(\C)c1ccco1 | < 4.00
Cc1nnc(NN)c2c1[nH]c1ccccc12 | < 4.00
Cc1sc2ncnc(N/N=C/c3c(O)ccc4ccccc34)c2c1C | 4.28
COc1cc(/C=N/Nc2ccc(S(=O)(=O)Nc3ccccc3C(=O)O)cc2[N+](=O)[O-])ccc1O | < 4.00
O=C(N/N=C/c1cc(Br)ccc1O)c1cccnc1 | < 4.00

INPUT: State the recorded pIC50 for this entry: `O=C(COc1ccc(Cl)cc1Cl)N/N=C/c1cc(Br)ccc1O`
OUTPUT: < 4.00

INPUT: State the recorded pIC50 for this entry: `O=C(N/N=C/c1c(O)ccc2ccccc12)c1cc[nH]n1`
OUTPUT: < 4.00

INPUT: State the recorded pIC50 for this entry: `CC(=O)c1ccc(/N=N/c2ccc(C[P+](c3ccccc3)(c3ccccc3)c3ccccc3)cc2)cc1`
OUTPUT: < 4.00

INPUT: State the recorded pIC50 for this entry: `Cn1cccc1/C=N/N1CCN(Cc2ccccc2)CC1`
OUTPUT: < 4.00

INPUT: State the recorded pIC50 for this entry: `COc1cc(Br)cc(/C=N/NC(=O)c2ccccn2)c1O`
OUTPUT: 4.89

INPUT: State the recorded pIC50 for this entry: `O=C(N/N=C/c1ccccc1O)c1cnccn1`
OUTPUT: < 4.00

INPUT: State the recorded pIC50 for this entry: `Oc1ccc(Br)cc1/C=N/Nc1cccc2cccnc12`
OUTPUT: < 4.00

INPUT: State the recorded pIC50 for this entry: `COCCN1C(=O)/C(=C\NNC(=O)c2cc(Cl)ccc2O)C(=O)NC1=S`
OUTPUT: 4.10

INPUT: State the recorded pIC50 for this entry: `FC(F)(F)c1ccccc1/C=N/N1CCN(Cc2ccccc2)CC1`
OUTPUT: < 4.00

INPUT: State the recorded pIC50 for this entry: `O=C(N/N=C/c1c(O)ccc2ccccc12)c1n[nH]c2c1CCC2`
OUTPUT: < 4.00
